Biological target: T1, Nkx2.2 (in vitro translated) (UniProt P42586 1-273)
T1 sequence: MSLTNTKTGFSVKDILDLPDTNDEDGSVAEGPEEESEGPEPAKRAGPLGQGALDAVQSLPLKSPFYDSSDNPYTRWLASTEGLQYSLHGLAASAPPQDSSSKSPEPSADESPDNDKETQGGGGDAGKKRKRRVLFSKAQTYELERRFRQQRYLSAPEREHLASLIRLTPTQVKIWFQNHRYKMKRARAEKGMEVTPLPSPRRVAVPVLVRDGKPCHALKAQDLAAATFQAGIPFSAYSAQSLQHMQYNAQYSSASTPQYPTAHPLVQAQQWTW
Assay: EMSA; EMSA as in ref 20; buffer, salt, pH and temperature not given
Settings: protein: ivt; label: 32P-dCTP Klenow fill-in; 5' overhangs, filled in with Klenow
measurement_kind: binding result

binder	value
Gcg -1080 (dsDNA) DNA 1: AGACCATTGAAACAACTGGAGGAGTACTCTGACTGAACTTAATTCTTCAT DNA 2: AGAATGAAGAATTAAGTTCAGTCAGAGTACTCCTCCAGTTGTTTCAATGG	no binding
Ins2 -477 (Ins -471 in probe list) (dsDNA) DNA 1: AAGCAGAACTCAGGCAGCAAGGTACTTAATGGTCCCTCCTTCTCCATC DNA 2: AGAGATGGAGAAGGAGGGACCATTAAGTACCTTGCTGCCTGAGTTCT	binds
Ins2 -144 (dsDNA) DNA 1: TGCTTTCTGCAGACCTAGCACCAGGCAAGTGTTTGGAAACTGCAGCT DNA 2: CTGAAGCTGCAGTTTCCAAACACTTGCCTGGTGCTAGGTCTGCAGAA	no binding
Nkx6.2 +1669 (+669 in probe list) (dsDNA) DNA 1: CCGAATCCCGCGCGGGCCACTTACCGGAGCCGGCCAGTCGCGGGTCCCTC DNA 2: CTGGAGGGACCCGCGACTGGCCGGCTCCGGTAAGTGGCCCGCGCGGGATT	no binding
